tested on: SARS-CoV-2; experiment: microbe, parasite or virus in culture; assay type: cell-based; details: Severe acute respiratory syndrome coronavirus 2, VeroE6/TMPRSS2, Lambda strain (TY33-456)
pEC50: −log10 of the molar value.

{"smiles_representation": "Cn1cnc(Cn2c(=O)[nH]/c(=N\\c3cc4cn(C)nc4cc3Cl)n(Cc3cc(F)c(F)cc3F)c2=O)n1", "system": "SARS-CoV-2", "pEC50": 6.57}

---

system: SARS-CoV-2; test: microbe, parasite or virus in culture; type: cell-based; conditions: Severe acute respiratory syndrome coronavirus 2, VeroE6/TMPRSS2, Theta strain (TY28-444)
pEC50: −log10 of the molar value.
measure: pEC50

{"smiles_representation": "Cn1cnc(Cn2c(=O)[nH]/c(=N\\c3cc4cn(C)nc4cc3Cl)n(Cc3cc(F)c(F)cc3F)c2=O)n1", "endpoint_value": 6.54}
